Quick reference: EC50 of the listed items.
tested target: Oxytocin receptor (Homo sapiens)
Sequence (P30559 whole entry): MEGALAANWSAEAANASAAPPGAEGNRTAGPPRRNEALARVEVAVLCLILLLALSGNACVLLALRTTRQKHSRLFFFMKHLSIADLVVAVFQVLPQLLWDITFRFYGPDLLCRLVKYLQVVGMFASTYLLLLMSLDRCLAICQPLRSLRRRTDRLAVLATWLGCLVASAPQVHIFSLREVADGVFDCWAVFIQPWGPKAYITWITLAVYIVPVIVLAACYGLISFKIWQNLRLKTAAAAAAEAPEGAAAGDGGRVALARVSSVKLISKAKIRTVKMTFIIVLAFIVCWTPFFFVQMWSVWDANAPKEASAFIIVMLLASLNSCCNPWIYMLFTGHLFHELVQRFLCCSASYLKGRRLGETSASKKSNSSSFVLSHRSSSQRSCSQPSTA
measurement protocol: Agonist activity at human OT receptor expressed in CHO-K1 cells by luciferase reporter gene assay
Format: functional, cell-based
particulars: cho-k1; read-out: EC50
Numbered stars: 1 amine (or outer) side, 2 acyl side, 3 side chain; on linkers, the order of the positions; unused ones are H or OH. Bridge positions count the residues as written; N and C are the ends. Square brackets hold non-standard residues; d marks the D form. Peptide text beside a SMILES is read from it. * marks the point of attachment. X1 = CCNCCC[C@H](N[*:1])C(=O)[*:2]; Dab(iPr) = CC(C)NCC[C@H](N)C(=O)O; Aad = N[C@@H](CCCC(=O)O)C(=O)O; Cha = N[C@@H](CC1CCCCC1)C(=O)O; Orn = NCCC[C@H](N)C(=O)O; Dab = NCC[C@H](N)C(=O)O; Ac4c = NC1(C(=O)O)CCC1; Dap = NC[C@H](N)C(=O)O; NHOH = ON*

>>> observed_measurement("CC[C@H](C)[C@@H]1NC(=O)[C@H](Cc2ccccc2)NC(=O)[C@@H](N)CSSC[C@@H](C(=O)N2CCC[C@H]2C(=O)N[C@@H](CN)C(=O)NCC(N)=O)NC(=O)[C@H](CC(N)=O)NC(=O)[C@H](CCC(N)=O)NC1=O (H-CFIQNCP[Dap]G-NH2; disulfide 1-6)")
"> 10 µM"

Query :: Determine its reported EC50: CC[C@H](C)[C@@H]1NC(=O)[C@H](Cc2ccccc2)NC(=O)[C@@H](N)CSSC[C@@H](C(=O)N2CCC[C@H]2C(=O)N[C@@H](CCCN)C(=O)NCC(N)=O)NC(=O)[C@H](CC(N)=O)NC(=O)[C@H](CCC(=O)NO)NC1=O (H-CFIE(NHOH)NCP[Orn]G-NH2; disulfide 1-6)
Result :: > 10 µM

Query :: Input CC[C@H](C)[C@@H]1NC(=O)[C@H](CC2CCCCC2)NC(=O)[C@@H](N)CSSC[C@@H](C(=O)N2CCC[C@H]2C(=O)N[C@@H](CCCN)C(=O)NCC(N)=O)NC(=O)[C@H](CC(N)=O)NC(=O)[C@H](CC(N)=O)NC1=O (H-C[Cha]INNCP[Orn]G-NH2; disulfide 1-6) , output reported EC50.
Result :: > 10 µM

Query :: For the compound CC[C@H](C)[C@@H]1NC(=O)[C@H](Cc2ccccc2)NC(=O)[C@@H](N)CSSC[C@@H](C(=O)N2CCC[C@H]2C(=O)N[C@@H](CCCN)C(=O)NCC(N)=O)NC(=O)[C@H](CC(N)=O)NC(=O)[C@H](CC(=O)N(C)C)NC1=O (H-CFID(NMe2)NCP[Orn]G-NH2; disulfide 1-6) , report EC50.
Result :: > 10 µM

Query :: Entry CCNCCC[C@H](NC(=O)[C@@H]1CCCN1C(=O)[C@@H]1CSSC[C@H](N)C(=O)N[C@@H](Cc2ccccc2)C(=O)N[C@@H]([C@@H](C)CC)C(=O)N[C@@H](CC(N)=O)C(=O)N[C@@H](CC(N)=O)C(=O)N1)C(=O)NCC(N)=O (H-CFINNCP[X1]G-NH2; disulfide 1-6) needs its EC50 filled in; supply it.
Result :: > 10 µM

Query :: Provide measured EC50 value, entry: CC[C@H](C)[C@@H]1NC(=O)[C@H](Cc2ccccc2)NC(=O)[C@@H](N)CSSC[C@@H](C(=O)N2CCC[C@H]2C(=O)N[C@@H](CCNC(C)C)C(=O)NCC(N)=O)NC(=O)[C@H](CC(N)=O)NC(=O)[C@H](CCCC(N)=O)NC1=O (H-CFI[Aad](NH2)NCP[Dab(iPr)]G-NH2; disulfide 1-6)
Result :: > 10 µM

Query :: Provide EC50 value for the following compound: CC[C@H](C)[C@@H]1NC(=O)C2(CCC2)NC(=O)[C@@H](N)CSSC[C@@H](C(=O)N2CCC[C@H]2C(=O)N[C@@H](CCN)C(=O)NCC(N)=O)NC(=O)[C@H](CC(N)=O)NC(=O)[C@H](CC(N)=O)NC1=O (H-C[Ac4c]INNCP[Dab]G-NH2; disulfide 1-6)
Result :: > 10 µM
